Tested on: K562
procedure_text: Antiproliferative activity against human K562 cells assessed as reduction in cell growth incubated for 72 hrs by MTT assay
Format: functional, cell-based
condition_notes: K562, 72 h
For each of the molecules below, state its log10(IC50).
A difference of one corresponds to tenfold IC50; all values are log10 with IC50 in nM.

Reported log10(IC50), molecule "CC(=O)N[C@@H]1[C@@H](O)[C@H](c2nc(C(N)=O)cs2)O[C@@H]1CO" : ____
2.53

Query: log10(IC50); subject: "CC(=O)N[C@H]1[C@H](O)[C@@H](CO)O[C@H]1c1nc(C(N)=O)cs1"
0.79

// returns reported log10(IC50) for input "NC(=O)c1csc([C@@H]2O[C@H](CO)[C@@H](O)[C@@H]2N)n1"
3.29

Need log10(IC50), item "[N-]=[N+]=N[C@H]1[C@H](O)[C@@H](CO)O[C@H]1c1nc(C(N)=O)cs1"
3.80

Name the reported log10(IC50) value associated with the molecule "NC(=O)c1csc([C@@H]2O[C@H](CO)[C@H](N)[C@H]2O)n1"
1.54

====

procedure_text: Ratio of compound IC50 to tiazofurin IC50 for cytotoxicity against human MRC5 cells incubated for 72 hrs by MTT assay
Format: cell-based
condition_notes: read-out: Ratio IC50
property_measured: selectivity ratio at 72 h
Provide a numeric answer; units are not to be included.

Which selectivity ratio at 72 h is listed for "CC(=O)N[C@H]1[C@H](O)[C@@H](CO)O[C@H]1c1nc(C(N)=O)cs1" ?
9

====

Test system: K562
procedure_text: Genotoxicity in human K562 cells assessed as increase in DNA damage at cytotoxic IC50 incubated for 72 hrs by comet assay
Assay type: toxicity, cell-based
condition_notes: k562, 72 h
property_measured: Activity

compound: NC(=O)c1csc([C@@H]2O[C@H](CO)[C@H](O)[C@H]2O)n1
property_measured: Activity
value_measured: Toxic
--
compound: NC(=O)c1csc([C@@H]2O[C@H](CO)[C@H](N)[C@H]2O)n1
property_measured: Activity
value_measured: Toxic
--
compound: CC(=O)N[C@@H]1[C@@H](O)[C@H](c2nc(C(N)=O)cs2)O[C@@H]1CO
property_measured: Activity
value_measured: Toxic
--
compound: NC(=O)c1csc([C@@H]2O[C@H](CO)[C@@H](O)[C@H]2O)n1 [TIAZOFURIN]
property_measured: Activity
value_measured: Toxic

====

Tested on: K562
procedure_text: Cell cycle arrest in human K562 cells assessed as accumulation in SubG1 phase incubated for 72 hrs by propidium iodide staining based flow cytometry (reference value: 3.07%)
Assay type: functional
For each of the molecules below, state its Activity.
Reply numerically in %, unit not repeated.

Suppose we examine the molecule "CC(=O)N[C@H]1[C@H](O)[C@@H](CO)O[C@H]1c1nc(C(N)=O)cs1" ; what Activity value has been reported?
13.36

Can you share its Activity? I mean this molecule: "NC(=O)c1csc([C@@H]2O[C@H](CO)[C@H](N)[C@H]2O)n1"
12.78

What value of measured Activity is listed for "CC(=O)N[C@@H]1[C@@H](O)[C@H](c2nc(C(N)=O)cs2)O[C@@H]1CO" ?
1.9

Which Activity is listed for "NC(=O)c1csc([C@@H]2O[C@H](CO)[C@H](O)[C@H]2O)n1" ?
13.6

Look at this molecule and give its reported Activity. "NC(=O)c1csc([C@@H]2O[C@H](CO)[C@@H](O)[C@H]2O)n1"
24.99

Give the measured Activity of "[N-]=[N+]=N[C@H]1[C@H](O)[C@@H](CO)O[C@H]1c1nc(C(N)=O)cs1" .
13.59

Given the entry "NC(=O)c1csc([C@@H]2O[C@H](CO)[C@@H](O)[C@@H]2N)n1" , report its measured Activity.
17.08

====

Test system: K562
procedure_text: Induction of necrosis in human K562 cells incubated for 72 hrs by annexin V FITC and propidium iodide staining based flow cytometry relative to control
Assay type: functional
Design: concentration or dose not given beside the values
property_measured: Activity

Which Activity value is on record for "CC(=O)N[C@H]1[C@H](O)[C@@H](CO)O[C@H]1c1nc(C(N)=O)cs1" ?
7.29%

Look at this compound and give its reported Activity. "NC(=O)c1csc([C@@H]2O[C@H](CO)[C@@H](O)[C@H]2O)n1"
13.71%

Look at this compound and give its reported Activity. "NC(=O)c1csc([C@@H]2O[C@H](CO)[C@H](N)[C@H]2O)n1"
20.43%

Name the recorded Activity for "[N-]=[N+]=N[C@H]1[C@H](O)[C@@H](CO)O[C@H]1c1nc(C(N)=O)cs1" .
6.24%

Given the compound "CC(=O)N[C@@H]1[C@@H](O)[C@H](c2nc(C(N)=O)cs2)O[C@@H]1CO" , what is its reported Activity?
14.11%

Reported Activity, compound "NC(=O)c1csc([C@@H]2O[C@H](CO)[C@@H](O)[C@@H]2N)n1" : ____
9.82%

// query Activity value for entry "NC(=O)c1csc([C@@H]2O[C@H](CO)[C@H](O)[C@H]2O)n1"
21.08%

====

Tested on: K562
procedure_text: Induction of apoptosis in human K562 cells incubated for 72 hrs by annexin V FITC and propidium iodide staining based flow cytometry relative to control
Format: functional
Parameters: concentration or dose not given beside the values
property_measured: Activity (%)
Use % as the unit, but write only the number.

What measured Activity is associated with "NC(=O)c1csc([C@@H]2O[C@H](CO)[C@H](O)[C@H]2O)n1" on K562?
16.69

// map "[N-]=[N+]=N[C@H]1[C@H](O)[C@@H](CO)O[C@H]1c1nc(C(N)=O)cs1" to recorded Activity (system: K562)
12.86

Fill in the recorded Activity for this molecule, with K562 as test system: "NC(=O)c1csc([C@@H]2O[C@H](CO)[C@@H](O)[C@H]2O)n1"
13.71

# query: Activity | item "NC(=O)c1csc([C@@H]2O[C@H](CO)[C@@H](O)[C@@H]2N)n1" | system: K562
23.39

Lookup: Activity / K562 / "CC(=O)N[C@H]1[C@H](O)[C@@H](CO)O[C@H]1c1nc(C(N)=O)cs1"
22.85

Activity of "NC(=O)c1csc([C@@H]2O[C@H](CO)[C@H](N)[C@H]2O)n1" on K562?
34.37

Checklist item: Activity tested on K562, entry "CC(=O)N[C@@H]1[C@@H](O)[C@H](c2nc(C(N)=O)cs2)O[C@@H]1CO" , value?
10.14

====

Tested on: K562
procedure_text: Cell cycle arrest in human K562 cells assessed as accumulation in S phase incubated for 72 hrs by propidium iodide staining based flow cytometry (reference value: 36.05%)
Assay type: functional
property_measured: Activity (%)
Number in %, nothing else.

I'd like to know its Activity. The compound in question is "CC(=O)N[C@H]1[C@H](O)[C@@H](CO)O[C@H]1c1nc(C(N)=O)cs1"
36.13

Which Activity value is on record for "[N-]=[N+]=N[C@H]1[C@H](O)[C@@H](CO)O[C@H]1c1nc(C(N)=O)cs1" ?
35.15

Give the measured Activity of "NC(=O)c1csc([C@@H]2O[C@H](CO)[C@@H](O)[C@@H]2N)n1" .
34.2

// query Activity value for entry "NC(=O)c1csc([C@@H]2O[C@H](CO)[C@H](O)[C@H]2O)n1"
32.94

State the recorded Activity for this entry: "NC(=O)c1csc([C@@H]2O[C@H](CO)[C@H](N)[C@H]2O)n1"
32.99

Bench note: what Activity did "NC(=O)c1csc([C@@H]2O[C@H](CO)[C@@H](O)[C@H]2O)n1" show?
33.62

# input compound: "CC(=O)N[C@@H]1[C@@H](O)[C@H](c2nc(C(N)=O)cs2)O[C@@H]1CO" ; wanted: its Activity
41.58

====

I'd be grateful if you could share measured IC50 for these entries.
Tested on: MRC5
procedure_text: Cytotoxicity against human MRC5 cells assessed as reduction in cell viability incubated for 72 hrs by MTT assay
Assay type: cell-based
condition_notes: MRC5, 72 h
Respond numerically; units are µM and should not be typed.

Could you share what IC50 was measured for "CC(=O)N[C@@H]1[C@@H](O)[C@H](c2nc(C(N)=O)cs2)O[C@@H]1CO" , tested on MRC5?
42.4

Test system MRC5; read-out IC50; what value for "CC(=O)N[C@H]1[C@H](O)[C@@H](CO)O[C@H]1c1nc(C(N)=O)cs1" ?
3.21

====

System: K562
procedure_text: Cell cycle arrest in human K562 cells assessed as accumulation in G2/M phase incubated for 72 hrs by propidium iodide staining based flow cytometry (reference value: 15.45%)
Format: functional
property_measured: Activity

Quick one: Activity for "NC(=O)c1csc([C@@H]2O[C@H](CO)[C@H](O)[C@H]2O)n1" ?
11.6%

Quick one: Activity of "CC(=O)N[C@@H]1[C@@H](O)[C@H](c2nc(C(N)=O)cs2)O[C@@H]1CO" ?
13.22%

Requested read-out: Activity. Entry: "CC(=O)N[C@H]1[C@H](O)[C@@H](CO)O[C@H]1c1nc(C(N)=O)cs1"
11.66%

# lookup: Activity of "NC(=O)c1csc([C@@H]2O[C@H](CO)[C@@H](O)[C@@H]2N)n1"
10.79%

Which Activity is reported for this compound? NC(=O)c1csc([C@@H]2O[C@H](CO)[C@@H](O)[C@H]2O)n1 [TIAZOFURIN]
5.74%

Can you share its Activity? I mean this compound: "[N-]=[N+]=N[C@H]1[C@H](O)[C@@H](CO)O[C@H]1c1nc(C(N)=O)cs1"
13.6%

Value lookup for Activity; key = "NC(=O)c1csc([C@@H]2O[C@H](CO)[C@H](N)[C@H]2O)n1"
13.77%
